system: MDA-MB-231; assay: NCI tumour cell line growth inhibition, 48 h
Calls of active or inactive are those of the source. Cut-off read from the data, not from the text of the source: active = GI50 up to about 1.1 µM and inactive = higher.
parameter.measured: GI50

# molecule, result
data = [
    ("CCN(CC)C(=S)SNc1ccc(S(N)(=O)=O)cc1", "60.5 µM (inactive)"),
    ("COc1nc(-c2c[nH]c3ccccc23)cnc1N", "18.1 µM (inactive)"),
    ("CCN(CC)CCOc1ccc(N2C(=O)c3cc(OC)c(OC)cc3C2=O)cc1", "> 100 µM (inactive)"),
    ("CC(=O)Nc1ccc2c(c1)nc1c3ccccc3ccn21", "> 100 µM (inactive)"),
    ("CC(=O)NNc1nc(-c2ccc([N+](=O)[O-])cc2)c(C#N)c(=O)n1C", "15.8 µM (inactive)"),
    ("N#CC1Cc2cc3c(cc21)OCO3 (stereo unspecified)", "> 100 µM (inactive)"),
]

----------
test system: SK-MEL-5; experiment: NCI tumour cell line growth inhibition, 48 h
Calls of active or inactive are those of the source. Cut-off read from the data, not from the text of the source: active = GI50 up to about 1.1 µM and inactive = higher.

# compound, GI50
records = [
    ("CC(C)N(C(=O)C1(C)CC1)C(C)C", "> 100 µM (inactive)"),
    ("C=CCN1C(=O)CS/C1=N\\NC(=O)c1c(C)nc2sccn12", "> 100 µM (inactive)"),
    ("O=S(=O)(O)c1cc2ccc1/C=C\\c1ccc(cc1S(=O)(=O)O)/N=N\\c1ccc(c(S(=O)(=O)O)c1)/C=C\\c1ccc(cc1S(=O)(=O)O)/N=N\\2", "> 100 µM (inactive)"),
    ("C=C1CC[C@@H](C)[C@](C)(CCc2ccoc2)C/C=C\\C=C/1C(=O)O", "39.6 µM (inactive)"),
    ("Cc1ccc2c(c1)c1ccc3c(c1n2C)C(=O)C=CC3=O", "4.56 µM (inactive)"),
    ("CCC1(Cl)C(=O)NC(=O)N(C2CC(O)C(CO)O2)C1N=[N+]=[N-] (stereo not given)", "> 100 µM (inactive)"),
    ("COC(=O)C1=Nc2c(C)nn(-c3ccccc3)c2N=C(c2ccc(C)cc2)C1", "> 10 µM (inactive)"),
    ("CC(C(=O)Oc1ccc2ccccc2c1-c1c(O)ccc2ccccc12)c1ccccc1 (stereo not given)", "13.7 µM (inactive)"),
    ("COc1c(O)ccc(C2=Cc3ccc(O)cc3OC2)c1OC", "16.1 µM (inactive)"),
    ("O=C(O)CCSC(=S)Nc1cccc(F)c1", "20 µM (inactive)"),
]

----------
tested on: MDA-MB-231; experiment: NCI tumour cell line growth inhibition, 48 h
Activity calls are given as the source filed them. No stated cut-off is given here; in the data, active = GI50 up to about 1.1 µM and inactive = higher.

# compound, GI50
rows = [
    ("Cn1c2ccccc2c(=O)c2cccc(C(=O)NC(CCCNC(=N)N)C(=O)O)c21 (stereo not given)", "> 100 µM (inactive)"),
    ("CC1C(c2ccccc2O)c2cc3c(cc2OC1N1CCCC1)OCO3 (stereo not given)", "27.8 µM (inactive)"),
    ("O=C(OC1C2OC(=O)c3cc(O)c(O)c(O)c3Oc3cc4c(c(O)c3O)-c3c(cc(O)c(O)c3O)C(=O)OCC3OC(O)C(OC(=O)c5cc(O)c(O)c(O)c5Oc5cc6c(c(O)c5O)-c5c(cc(O)c(O)c5O)C(=O)OC1C(COC6=O)OC2O)C(OC(=O)c1cc(O)c(O)c(O)c1)C3OC4=O)c1cc(O)c(O)c(O)c1 (stereo not given)", "19.6 µM (inactive)"),
    ("O=C(O)c1nn(-c2ccccc2-c2nnc(O)nc2O)c(=O)[nH]c1=O", "> 100 µM (inactive)"),
    ("CC(=O)Nc1ccc(Cc2ccc3nc(O)cc(C)c3c2)cc1", "28.8 µM (inactive)"),
]

----------
test system: MDA-N; assay: NCI tumour cell line growth inhibition, 48 h
Activity calls are given as the source filed them. Cut-off read from the data, not from the text of the source: active = GI50 up to about 1.1 µM and inactive = higher.
Below, each entry is listed alongside its reported GI50.

# compound, GI50
measured = [
    ("CCSCCCN(CCCSCC)CCCSCC", "> 100 µM (inactive)"),
    ("CCN(CC)C(=S)SNc1ccc(S(N)(=O)=O)cc1", "69.3 µM (inactive)"),
    ("C=CCOc1ccccc1/N=N/C(C#N)=N\\Nc1ccccc1OCC=C", "27.2 µM (inactive)"),
    ("Cc1ccc(S(=O)(=O)n2c3c(c4ccccc42)CCN2CCC(Br)C[C@@H]32)cc1 (stereo partly specified)", "4.42 µM (inactive)"),
    ("[N-]=[N+]=CC(=O)OCC1NC(=O)C(COC(=O)C=[N+]=[N-])NC1=O (stereo unspecified)", "> 100 µM (inactive)"),
    ("COc1c(O)ccc(C2=Cc3ccc(O)cc3OC2)c1OC", "3.68 µM (inactive)"),
]

----------
system: SNB-19; test: NCI tumour cell line growth inhibition, 48 h
Active and inactive are the calls of the source. Cut-off read from the data, not from the text of the source: active = GI50 up to about 1.1 µM and inactive = higher.

# compound, target.under.test, GI50
data = [
    ("CNC(=O)CN(C)C(=O)CCC(=O)N(C)C", "SNB-19", "> 100 µM (inactive)"),
    ("Cc1ccc(NC(=O)CSc2nc(C)nc3c2sc(=S)n3-c2ccccc2)cc1", "SNB-19", "5.37 µM (inactive)"),
    ("CCCCCCCCCCCC[C@@H](O)[C@H]1CCC([C@H](O)CCCCC(=O)CCCCCCCC2=C[C@H](C)OC2=O)O1 (stereo not given in full)", "SNB-19", "> 28.2 µM (inactive)"),
    ("OC(c1cc(-c2ccccc2)nc2c1ccc1ccccc12)C1CCCCN1 (stereo not given)", "SNB-19", "1.82 µM (inactive)"),
    ("O=C(O)C1=NN(c2ccc(S(=O)(=O)O)cc2)C2(C1)C(Cl)C(=O)N2c1nc2ccccc2s1 (stereo not given)", "SNB-19", "21.3 µM (inactive)"),
    ("COc1cc([C@@H]2C3C(=O)c4ccccc4C3[C@@H](c3cc(OC)c(OC)c(OC)c3)C23Cc2ccccc2C3=O)cc(OC)c1OC (stereo not given in full)", "SNB-19", "> 100 µM (inactive)"),
    ("S=C1Cc2c([nH]c3ccccc23)-c2ccccc2N1", "SNB-19", "34.4 µM (inactive)"),
    ("CC1=CC2c3cccc4[nH]cc(c34)CC2N(C)C1 (stereo not given)", "SNB-19", "> 100 µM (inactive)"),
    ("Cc1c2c(cc3c1[nH]c1ccccc13)C(c1ccc(F)cc1)=NCC2", "SNB-19", "1.41 µM (inactive)"),
    ("CCOC(=O)CN(Cc1ccccc1)Cc1c(C(=O)c2ccccc2)c2ccccc2n1C(=O)c1ccccc1", "SNB-19", "> 100 µM (inactive)"),
]

----------
system: NCI-H522; assay: NCI tumour cell line growth inhibition, 48 h
The source made the active and inactive calls. No stated cut-off is given here; in the data, active = GI50 up to about 1.1 µM and inactive = higher.
parameter.measured: GI50

# molecule, result
data = [
    ("Cc1c(C)c(C)c(Cn2[nH]c(=O)n(C)c2=O)c(C)c1C", "> 100 µM (inactive)"),
    ("CCOC(=O)C(NC(=O)NC(C(=O)OCC)C(=O)OCC)C(=O)OCC", "> 100 µM (inactive)"),
    ("C=CCOc1ccccc1/N=N/C(C#N)=N\\Nc1ccccc1OCC=C", "> 100 µM (inactive)"),
    ("CCC1=C(C=O)c2cc3[nH]c(cc4nc(c5c6[nH]c(cc1n2)c(C)c6C(=O)C5C(=O)OC)C(CCC(=O)OC)C4C)c(C)c3CC (stereo not given)", "> 100 µM (inactive)"),
    ("CC(C)OC(=O)NNc1c(Cl)cc(Cl)cc1Cl", "30.1 µM (inactive)"),
    ("C[P+]1(Cc2ccccc2)CCCC1", "> 100 µM (inactive)"),
    ("Cc1cc(C)c(S(=O)(=O)N(CCCN)OCCON(CCCN)S(=O)(=O)c2c(C)cc(C)cc2C)c(C)c1", "6.53 µM (inactive)"),
    ("COc1ccc(N[S+]([O-])c2ccccc2OC)cc1 (stereo not given)", "5.26 µM (inactive)"),
    ("CC1=CC(=O)CCC2(C)C1CC[C@@H]2OC=O (stereo not given in full)", "> 100 µM (inactive)"),
    ("COc1cc(OC)cc(C(=O)Cc2c(C(=O)c3ccccc3)c3ccccc3n2C(=O)c2ccccc2)c1", "6 µM (inactive)"),
]

----------
test system: SK-OV-3; test: NCI tumour cell line growth inhibition, 48 h
Calls of active or inactive are those of the source. Rule as the data show it: active = GI50 up to about 1.1 µM and inactive = higher.
Labels: yes = active, no = inactive

# compound, cat
measured = [
    ("NC(N)=NCCC[C@H](N)C(=O)NCC(=O)N[C@@H](CC(=O)O)c1ncc(NC(=O)C(F)(F)F)o1", "no"),
    ("C[n+]1c2ccccc2c(C(=O)NC(CCCNC(=N)N)C(=O)O)c2ccccc21 (stereo not given)", "no"),
    ("NC(=O)NC(=O)C1CCC(=O)N1S(=O)(=O)c1ccc(Cl)cc1 (stereo not given)", "no"),
    ("COc1ccc(NC(=O)/C(=N/NC(N)=S)C2C(=O)NC(=S)NC2=O)c(OC)c1", "no"),
    ("O=C(O)Cc1cc(=O)[nH]c2c1C(=O)CCC2", "no"),
    ("COc1c(O)ccc(C2=Cc3ccc(O)cc3OC2)c1OC", "no"),
    ("O=C(O)C(Br)C(Br)c1ccccc1[N+](=O)[O-] (stereo not given)", "no"),
    ("Cc1[nH]c(-c2ccccc2)c(O)c1C(=O)OC12CC3CC(CC(C3)C1)C2", "no"),
    ("CC(=O)Nc1cc(C(=O)Nc2cc(C(=O)N3CC(CCl)c4c3cc(N)c3ccccc43)nn2C)nn1C (stereo not given)", "yes"),
    ("C[S+](C)CC(=O)c1ccc2c(c1)Sc1ccccc1O2", "no"),
]
